Assay: sensitizers of A549 cells to miR-34 induction, primary screen, imaging, A549 dox-inducible miR-34, nuclei and caspase counts (AID 1347080)
Settings: A549 miR-34 inducible, Hoechst nuclei count, 48 h; measured here: total cells with miR-34 induction; stronger effect = lower value
# cell count per entry

| molecule | cell count |
| --- | --- |
| CCN(CCO)CCCC(C)Nc1ccnc2cc(Cl)ccc12 (stereo not drawn) | 11300 |
| C[C@H](CCC(=O)O)[C@H]1CC[C@H]2[C@@H]3C(=O)C[C@@H]4CC(=O)CC[C@]4(C)[C@H]3CC(=O)[C@]12C | 9210 |
| CC(C)C1CCC(C(=O)N[C@H](Cc2ccccc2)C(=O)O)CC1 (stereo partly drawn) | 8810 |
| O=C1NC(=O)C(c2c[nH]c3ccccc23)=C1c1c[nH]c2ccccc12 | 5130 |
| CN1C(=O)C(c2c[nH]c3ccccc23)=C(c2c[nH]c3ccccc23)C1=O | 5070 |
| CC1(C)O[C@@H]2C[C@H]3[C@@H]4CCC5=CC(=O)C=C[C@]5(C)[C@@]4(F)[C@@H](O)C[C@]3(C)[C@]2(C(=O)CO)O1 | 7390 |
| CCCCCCCCCCC[C@@H](C[C@@H]1OC(=O)[C@H]1CCCCCC)OC(=O)[C@H](CC(C)C)NC=O | 7850 |
| C[C@]12CCC(=O)C=C1CC[C@@H]1[C@@H]2[C@@H](O)C[C@@]2(C)[C@H]1CC[C@]2(O)C(=O)COC(=O)CCC(=O)O | 7160 |

###

Reported insulin secretion stimulation is given for each of the following molecules.
Test: stimulators of insulin release from INS-1E, primary screen, cell-based, 5 mM glucose, NPC library (AID 1117329); also: reference of the scale not given here
Details: rat INS-1E insulin secretion, at 10 µM, stronger effect = higher value

| molecule | insulin secretion stimulation / % |
| --- | --- |
| COc1cc([C@@H]2c3cc4c(cc3[C@@H](O[C@@H]3O[C@@H]5CO[C@@H](C)O[C@@H]5[C@H](O)[C@@H]3O)[C@H]3COC(=O)[C@H]23)OCO4)cc(OC)c1O | 1.2 |
| NC(=O)NS(=O)(=O)c1ccc(Cl)cc1 | 3.4 |
| Oc1c(Cl)cc(Cl)c2cccnc12 | -1.7 |
| COc1cc2nc(N3CCN(C(=O)c4ccco4)CC3)nc(N)c2cc1OC | 0.2 |
| Cc1cccc(C)c1NC(=O)CN1CCCC1 | 0.6 |
| C[C@@H](CN(C)C)CN1c2ccccc2Sc2ccccc21 | 15.1 |
| OCC(O)CS (stereo not drawn) | 0.7 |
| Cc1c(OCC(F)(F)F)ccnc1CS(=O)c1nc2ccccc2[nH]1 (stereo not drawn) | 0.9 |
| O=C(OCC(O)CO)c1ccccc1Nc1ccnc2c(C(F)(F)F)cccc12 (stereo not drawn) | -0.3 |
| C=CCN1C(=O)C(CC(C)C)NC1=S (stereo not drawn) | -1.4 |
| O=C1OC2(c3ccccc31)c1cc(Br)c(O)c(Br)c1Oc1c2cc(Br)c(O)c1Br | 0.5 |
| O=C(OCCN1CCOCC1)c1cccnc1Nc1cccc(C(F)(F)F)c1 | -0.1 |
| CCS(=O)(=O)CCn1c([N+](=O)[O-])cnc1C | -2 |
| CCO[C@@H]1O[C@H](C(COCc2ccccc2)OCc2ccccc2)[C@H](OCc2ccccc2)[C@H]1O (stereo partly drawn) | 2.2 |
| COC(=O)c1ccc(NC(C)=O)cc1OC | -1.4 |
| NNC(=O)CP(=O)(c1ccccc1)c1ccccc1 | -2 |
| O=C(c1ccco1)N1CCNCC1 | 0.1 |
| CO/N=C(\C(=O)O)c1csc(NC(=O)CCl)n1 | 1.4 |
| CCCCC(CC)COC(=O)c1ccc(N(C)C)cc1 (stereo not drawn) | -2.6 |
| CN=C(NC#N)NCCSCc1nc[nH]c1C | 1.3 |
| CN(C)C(=O)CNC(=O)Cc1ccccc1 | 2.5 |
| CN[C@@H]1[C@@H](O)[C@@H](O[C@@H]2[C@H](O)[C@H](O[C@H]3OC(CN)=CC[C@H]3N)[C@@H](N)C[C@H]2N)OCC1(C)O (stereo partly drawn) | 0.6 |
| COc1ccc(S(=O)(=O)N2c3ccc(Cl)cc3[C@@](O)(c3ccccc3Cl)[C@H]2C(=O)N2CCC[C@@H]2C(N)=O)cc1OC | 2.35 |

###

Test: CellTiter-Glo luminescent readout of SW480 viability loss, NPC library primary (AID 1117343)
Conditions: CellTiter-Glo luminescence; at 20 µM (top of the series)
Calls of active or inactive are those of the source.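 Rule for the calls: active = compounds that lower viability of the colon cancer cells in the luminescence readout, with no numeric limit stated; inactive = the rest.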

| compound | viability decrease (inhibition) |
| --- | --- |
| CNC(=O)CN(CCN(CCN(CC(=O)[O-])CC(=O)NC)CC(=O)[O-])CC(=O)[O-].O.[Gd+3] | 30.9% (inactive) |
| CCC(=O)Nc1ccc(O)cc1 | 27% (inactive) |
| O=C1Cc2cc(Cl)ccc2N1 | -9.4% (inactive) |
| O=C1CC[C@H](C(=O)N2CCCCC2)N1 | -22% (inactive) |
| N=C(N)n1cccn1 | 16.1% (inactive) |
| CCOC(=O)C(O)c1ccccc1 (configuration not stated) | -10% (inactive) |
| CCCCCCCCCCOCC(O)CN (configuration not stated) | 102% (active) |
| CC(CN1c2ccccc2Sc2ccccc21)N(C)C (configuration not stated) | 110% (active) |
| O=C(O)c1cc(=O)c2c3nc4ccccc4oc-3cc(=O)c2[nH]1 | 17.8% (inactive) |
| O=C1CCC(N2C(=O)c3ccccc3C2=O)C(=O)N1 (configuration not stated) | 11.1% (inactive) |
| CCNC(=O)NCCCOc1cccc(CN2CCCCC2)c1 | -19.1% (inactive) |
| CC[N+]1(CC)CCC(=C(c2ccccc2)c2ccccc2)C1C (configuration not stated) | 1.6% (inactive) |
| CC(C)(Oc1ccc(Cl)cc1)C(=O)OCCCOC(=O)C(C)(C)Oc1ccc(Cl)cc1 | 8.9% (inactive) |
| O=C(CS)Nc1ccccc1 | -2.4% (inactive) |
| NNc1nnc(NN)c2ccccc12 | 22.7% (inactive) |
| CCOC(=O)CN1CCCC1=O | -15.1% (inactive) |
| Cc1ccc(S(=O)(=O)NC(=O)NN2CCCCCC2)cc1 | -1.7% (inactive) |
| CN(C)C(=O)Oc1ccc[n+](C)c1 | -8.3% (inactive) |
| O=C(O)Cc1ccccc1Oc1ccc(Cl)cc1Cl | -5% (inactive) |
| COc1cc(/C=C/C(=O)O[C@H]2CC[C@]34C[C@]35CC[C@]3(C)[C@@H]([C@H](C)CCC=C(C)C)CC[C@@]3(C)[C@@H]5CC[C@H]4C2(C)C)ccc1O | -10.1% (inactive) |
| CCCCC(C)(O)CC=C[C@H]1[C@H](O)CC(=O)[C@H]1CCCCCCC(=O)OC (some centres not stated) | -17.2% (inactive) |
| OC(CCN1CCCC1)(c1ccccc1)C1CCCCC1 (configuration not stated) | 22.1% (inactive) |
| CN1C(C(=O)Nc2ccccn2)=C(O)c2ccccc2S1(=O)=O | 15.6% (inactive) |
| CCCCCCCCCCCCCCCCCCN(C)C | -27.7% (inactive) |
| C=CCNCCCCCC[N+](C)(C)C | -2.3% (inactive) |
| C[C@]12CCC(=O)C=C1CC[C@@H]1[C@@H]2[C@@H](O)C[C@@]2(C)[C@H]1CC[C@]2(O)C(=O)COC(=O)CCC(=O)O | -13.6% (inactive) |
| O=C(CCN1CCN(CCO)CC1)N1c2ccccc2Sc2ccc(C(F)(F)F)cc21 | 96.4% (active) |
| Cn1c(O)c(N=NC(N)=S)c2ccccc21 | 30.4% (inactive) |
| COc1ccc2cc1Oc1cc3c(cc1OC)CC[N+](C)(C)[C@H]3Cc1ccc(cc1)Oc1c(OC)c(OC)cc3c1[C@@H](C2)[N+](C)(C)CC3 | 14% (inactive) |
| CCC(=C(CC)c1ccc(OP(=O)(O)O)cc1)c1ccc(OP(=O)(O)O)cc1 | -2.6% (inactive) |
| CC(CCc1ccc2c(c1)OCO2)NN (configuration not stated) | 97.6% (active) |
| CO/N=C(/C(=O)N[C@@H]1C(=O)N2C(C(=O)[O-])=C(C[n+]3ccn4ncccc43)CS[C@H]12)c1nsc(N)n1 | -3.8% (inactive) |
| C[C@@H](O)[C@H]1C(=O)N2C(C(=O)[O-])=C(SC3Cn4cnc[n+]4C3)[C@H](C)[C@H]12 (some centres not stated) | -6.5% (inactive) |
| O=c1[nH]sc2cc(Cl)ccc12 | 157% (active) |
| Cc1cccc(C)c1NC(=O)CN1CCCCCC1 | 23.3% (inactive) |
| NCCNc1cccc2ccccc12 | 51.5% (active) |
| C[C@H]1C[C@H](O)c2ccsc2S1(=O)=O | -6.2% (inactive) |
| Oc1ccc(Cl)cc1Sc1cc(Cl)ccc1O | 122% (active) |
| O=S(=O)(O)c1ccc(O)cc1 | 11.5% (inactive) |
| COc1cccc(CCc2ccccc2OCC(CN(C)C)OC(=O)CCC(=O)O)c1 (configuration not stated) | 87.5% (active) |
| O=P(O)(O)C(O)(Cc1cnc2ccccn12)P(=O)(O)O | 3.6% (inactive) |
| CCC(=O)Oc1ccc2c(c1)CC[C@@H]1[C@@H]2CC[C@@]2(C)[C@H]1C[C@@H](OC(=O)CC)[C@@H]2OC(=O)CC | 67.4% (active) |
| CCOc1ccc2ccccc2c1C(=O)N[C@@H]1C(=O)N2[C@@H]1SC(C)(C)[C@@H]2C(=O)O | 39.8% (inactive) |
| COc1ccc(OC(=O)N(CC(=O)O)Cc2ccc(OCCc3nc(-c4ccccc4)oc3C)cc2)cc1 | 105% (active) |
| Cc1ccc2c(n1)Oc1ccc(C(C)C(=O)OCC(=O)N(C)C)cc1C2 (configuration not stated) | -3.8% (inactive) |
| CSc1ccc2c(c1)N(CCC1CCCCN1C)c1ccccc1S2 (configuration not stated) | 133% (active) |
| N#CSCC(=O)O | -6.2% (inactive) |
